# recorded-conditions: in n-pentanol, 283.15 K
measure: solubility (mole fraction)
Give bare numbers.

Per the records, this molecule ( Cc1c(OCC(F)(F)F)ccnc1CS(=O)c1nc2ccccc2[nH]1 (stereo unspecified) ) has solubility (mole fraction) equal to 0.00138

* * *

# recorded-conditions: in isopropanol, 283.15 K
measure: solubility (mole fraction)

Looking up Cc1c(OCC(F)(F)F)ccnc1CS(=O)c1nc2ccccc2[nH]1 (stereo unspecified) , I see its solubility (mole fraction) listed as 0.00082

* * *

# recorded-conditions: in ethyl acetate, 288.15 K
measure: solubility (mole fraction)
Answers are plain numbers.

// sample Cc1c(OCC(F)(F)F)ccnc1CS(=O)c1nc2ccccc2[nH]1 (stereo unspecified) , its solubility (mole fraction) was 0.00164
